Recorded values, source PubChem BioAssay.

test-target: NADPH oxidase 5 (Homo sapiens)
procedure-summary: NOX5-dependent H2O2 signal modulators, primary screen, NOX inhibitor project, cell-based, HEK293-NOX5, Amplex Red fluorescence (AID 1161)
experimental-conditions: HEK293-NOX5, ionomycin, 45 min, higher = more signal
property-measured: z-score
A bare number is all that is needed in reply.

compound: C=CCOC(=O)[C@@H]1[C@H]2C(=O)O[C@H](c3ccccc3)[C@H](c3ccccc3)N2[C@H](c2ccc(OCCOC(=O)[C@@H]3C[C@@H]4C(=O)N[C@@H](Cc5ccccc5)C(=O)N4[C@@H]3c3ccc(O)cc3)cc2)[C@@]12C(=O)Nc1ccc(I)cc12
property-measured: z-score
observed-measurement: 0.591
//
compound: O=C1OCCC/C=C\[C@H]2OC34C=CCN(Cn5nnc6ccccc65)C(=O)[C@H]3N(CCO)C(=O)[C@@H]4C12 (stereo partly specified)
property-measured: z-score
observed-measurement: 1.92
//
compound: O=C1OCCC/C=C\[C@H]2OC34C=CCN(Cc5ccccc5)C(=O)[C@H]3N(CCCCCCO)C(=O)[C@@H]4C12 (stereo partly specified)
property-measured: z-score
observed-measurement: 1.88
//
compound: O=C1O[C@@H](c2ccccc2)[C@@H](c2ccccc2)N2[C@@H](c3ccccc3OCCO)[C@]3(C(=O)Nc4ccc(C#CC5=CCCCC5)cc43)[C@@H](C(=O)Nc3nc4ccccc4s3)[C@H]12
property-measured: z-score
observed-measurement: 1.59
//
compound: COC(=O)[C@@]1(Cc2ccc(F)cc2)[C@H]2c3cc(C(=O)N(C)C)n(Cc4nc5ccccc5[nH]4)c3C[C@H]2CN1C(=O)c1ccccc1
property-measured: z-score
observed-measurement: -2.06

# query: z-score of entry CCCC=C(CCC)[C@@H](NC(=O)Oc1ccc(F)cc1)c1ccc(C(=O)OC)cc1
-0.592

====

In this section we review reported composite z-score values for a set of compounds.
test-target: Carbonic anhydrase 2 (Homo sapiens)
procedure-summary: CAII small-molecule binders, profiling panel, biochemical, small-molecule microarray, Alexa647-labelled CAII (AID 1122)
experimental-conditions: CAII-A647 binding fluorescence, higher = more signal
A bare number is all that is needed in reply.

// known answers, use as guide
compound: COCCOC(=O)N1C(=O)[C@@]2(c3cc(C#CC4=CCCCC4)ccc31)[C@H](c1ccc(O)cc1)N1[C@H](c3ccccc3)[C@H](c3ccccc3)OC(=O)[C@H]1[C@@H]2C(N)=O
property-measured: composite z-score
observed-measurement: 0.331

compound: [N-]=[N+]=NCc1ccccc1C[C@]1(C(=O)NCC(O)CO)N=C(c2ccc(OCCCO)cc2)O[C@H]1c1ccccc1 (stereo partly drawn)
property-measured: composite z-score
observed-measurement: 0.698

Recall the recorded composite z-score for C=CCNC(=O)[C@H]1[C@@H]2C(=O)O[C@@H](c3ccccc3)[C@@H](c3ccccc3)N2[C@@H](c2ccc(OCCO)cc2)[C@]12C(=O)Nc1ccc(C#CC3=CCCCC3)cc12 with Carbonic anhydrase 2 (Homo sapiens) and state it.
0.338

====

In this section we review reported composite z-score values for a set of molecules.
test-target: Follistatin (Homo sapiens) (UniProt P19883)
Sequence (P19883 whole entry, looked up): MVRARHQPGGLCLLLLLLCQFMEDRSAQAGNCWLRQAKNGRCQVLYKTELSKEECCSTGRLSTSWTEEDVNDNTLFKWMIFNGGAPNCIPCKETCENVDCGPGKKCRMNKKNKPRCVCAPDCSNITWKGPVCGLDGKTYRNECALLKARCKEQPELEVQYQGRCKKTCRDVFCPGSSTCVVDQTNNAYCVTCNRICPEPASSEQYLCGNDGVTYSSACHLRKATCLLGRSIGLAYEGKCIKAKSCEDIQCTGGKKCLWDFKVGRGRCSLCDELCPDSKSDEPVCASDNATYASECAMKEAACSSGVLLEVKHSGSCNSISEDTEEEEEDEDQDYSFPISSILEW
procedure-summary: follistatin binders on small-molecule microarrays, primary screen, biochemical, small-molecule microarray, 635/667 nm fluorescence (AID 1132)
experimental-conditions: FST binding, 635 nm fluorescence, higher = more signal
A bare number is all that is needed in reply.

// known answers, use as guide
molecule: C=CC[C@]12N=C(c3ccc(OCCCO)cc3)O[C@H]1c1ccccc1N(Cc1ccccc1)C2=O
observed-measurement: 1.29
//
molecule: COc1ccc(C(=O)O[C@H]2CC[C@]3(C)C4=C(CCC3C2(C)C)[C@]2(C)CC[C@H]([C@H](C)CCCC(C)C)[C@@]2(C)CC4)cc1 (some centres not stated)
observed-measurement: 0.625
//
molecule: CC(C)C[C@@H]1NC(=O)[C@H]2C[C@@H](C(=O)NCCCCCCN(C)C)[C@@H](c3ccc(O)cc3)N2C1=O
observed-measurement: 1.35
//
molecule: CC(C)(C)OC(=O)CC[C@@]12N=C(c3ccc(OCCCO)cc3)O[C@@H]1c1ccccc1N(CCS(=O)(=O)c1ccccc1)C2=O
observed-measurement: 1.3
//
molecule: CCCC[C@@H]1C[C@H]1[C@@H](NC(=O)c1ccco1)c1ccc(C(=O)OC)cc1
observed-measurement: -0.943

# query: composite z-score of entry NCCCCCNC(=O)[C@@H]1C[C@@H]2C(=O)N[C@@H](Cc3ccccc3)C(=O)N2[C@@H]1c1cccc(OCCO)c1
0.574

# query: composite z-score of entry C=CCOC(=O)[C@@H]1[C@H]2C(=O)O[C@H](c3ccccc3)[C@H](c3ccccc3)N2[C@H](c2ccc(OCCOC(=O)[C@@H]3C[C@@H]4C(=O)N[C@@H](CCCC[N+](C)(C)C)C(=O)N4[C@@H]3c3cccc(OCCO)c3)cc2)[C@@]12C(=O)Nc1ccc(I)cc12
1.41

# query: composite z-score of entry CCOc1cc(C(O)C2C=CC3C(=O)N(c4ccccc4)C(=O)C3N2Nc2ccccc2)ccc1O (configuration not stated)
0.608

# query: composite z-score of entry O=C(NCc1ccccc1)[C@@H]1c2ccccc2C(=O)N(CC23CC4CC(CC(C4)C2)C3)[C@H]1c1ccc(CO)cc1
1.17

====

procedure-summary: basal MM1S mitochondrial membrane potential changes, profiling panel, cell-based, JC-1 fluorescence, 24 h, 100 nL compound (AID 1170); also: test concentration not given here
experimental-conditions: higher = more signal
In this section we review reported z-score values for a set of compounds.
A bare number is all that is needed in reply.

compound: CCCCCN1CC=CC23O[C@@H]4/C=C\CCCOC(=O)C4[C@H]2C(=O)N(CCCO)[C@@H]3C1=O (some centres undefined)
z-score: 0.286
//
compound: CN(C)C(=O)[C@]1(Cc2ccccc2N=[N+]=[N-])N=C(c2ccc(OCCCO)cc2)O[C@@H]1c1ccccc1
z-score: -1.27
//
compound: Cc1ccc(S[C@]2(C(=O)NCCN3CCOCC3)CC(=O)N(Cc3ccccc3)[C@@H]2c2ccc(CO)cc2I)cc1
z-score: -2.44

# query: z-score of entry COc1ccc([Si](C)(C)[C@@H]2[C@@H](CC(=O)N3Cc4ccccc4C[C@H]3CO)O[C@]3(C(=O)N(C)c4c(Br)cc(C)cc43)[C@H]2C)cc1
-2.23

====

In this section we review reported composite z-score values for a set of compounds.
test-target: Calmodulin-1 (Homo sapiens)
procedure-summary: calcium-bound CALM1 binders on microarrays, profiling panel, artefact control for SMM control-protein annotation, biochemical, small-molecule microarray, Cy5-labelled CALM1, plus calcium (AID 1112);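 also: score merges spot fluorescence with signal to noise from triplicate slides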
experimental-conditions: Cy5-CALM1 binding fluorescence, higher = more signal
A bare number is all that is needed in reply.

// known answers, use as guide
compound: Cc1ccc(S[C@]2(C(=O)NC(C)C)CC(=O)N(Cc3ccccc3Cl)[C@@H]2c2ccc(CO)cc2I)cc1
composite z-score: -0.174
//
compound: CC(C)N1C(=O)[C@@]2(Cc3ccccc31)c1ccccc1C(=O)N(C1CCCCC1)[C@H]2c1ccc(CO)cc1
composite z-score: -0.56
//
compound: O=C1C[C@]2(c3ccc([N+](=O)[O-])cc3)C(=O)N(CCN3CCOCC3)c3cc(CO)ccc3[C@H]2N1C1CCCCC1
composite z-score: 0.0884

Proceed to the following item.
Recall the recorded composite z-score for CCCCN1CC=CC23O[C@@H]4C=CCOC(=O)[C@@H]4[C@H]2C(=O)N(CCCCCO)[C@@H]3C1=O (some centres undefined) with Calmodulin-1 (Homo sapiens) and state it.
-0.363

====

procedure-summary: A549 lung cancer cell viability effects, profiling panel, resazurin fluorescence, 24 h, PK04 Diversity Set (AID 1171); also: test concentration not given here
experimental-conditions: higher = more signal, called active from +8 up or from −8 down
property-measured: z-score
A bare number is all that is needed in reply.

# query: z-score of entry C=C(C)C1C(=C)CN([C@H](CO)c2ccccc2)C1=O (stereo not given in full)
1.02

# query: z-score of entry CCOC(=O)C[C@H]1[C@H](OC(=O)Cc2ccc3c(c2)OCO3)[C@@H](NC(=O)c2ccc3ccccc3c2)c2cc(OCCCO)ccc2N1C(=O)c1ccccc1
0.859

# query: z-score of entry COC(=O)[C@@]1(Cc2ccc(F)cc2)[C@@H]2[C@@H](CC(=O)[C@H]2CC(=O)C(=O)N(C)C)CN1C(=O)c1ccccc1
-2

# query: z-score of entry COc1ccc(C(O)C2C=CC3C(=O)NC(=O)C3N2Nc2ccccn2)cc1 (stereo not given)
-0.582

# query: z-score of entry CO[C@H]1O[C@H](CO)[C@@H](OC(=O)Nc2ccc(Br)cc2)[C@H](OC(=O)c2cc3ccccc3[nH]2)[C@H]1OC(=O)c1cc2ccccc2[nH]1
-5.8

# query: z-score of entry COc1ccc(C#Cc2ccc3c(c2)[C@]2(C(=O)N3)[C@H](c3ccccc3OCCO)N3[C@H](c4ccccc4)[C@H](c4ccccc4)OC(=O)[C@H]3[C@@H]2C(=O)O)cc1
0.206

# query: z-score of entry CN1C(=O)C2C=CC(C(O)c3ccc(-c4ccccc4)s3)N(N(c3ccccc3)c3ccccc3)C2C1=O (stereo not given)
-0.434

# query: z-score of entry CC1CC/C=C\[C@H]2OC34C=CCN(C(C)(C)C)C(=O)[C@H]3N(CCCCCCO)C(=O)[C@@H]4C2C(=O)O1 (stereo not given in full)
-0.43

# query: z-score of entry CC1(C)[C@@H]2CC(C(O)C3C=CC4C(=O)N(c5ccccc5)C(=O)C4N3Nc3ccccc3)=C[C@H]1C2 (stereo not given in full)
-0.158

# query: z-score of entry COc1ccc([Si](C)(C)[C@H]2[C@H](CCO)O[C@@]3(C(=O)N(Cc4ccc(N5C(=O)COc6ccccc65)cc4)c4ccccc43)[C@@H]2C)cc1
-2.35
